The measured values listed here are drawn from ChEMBL document CHEMBL1157164.

# SYSTEM_NAME: Chitinase B (Serratia marcescens)
# Sequence (P11797 whole entry): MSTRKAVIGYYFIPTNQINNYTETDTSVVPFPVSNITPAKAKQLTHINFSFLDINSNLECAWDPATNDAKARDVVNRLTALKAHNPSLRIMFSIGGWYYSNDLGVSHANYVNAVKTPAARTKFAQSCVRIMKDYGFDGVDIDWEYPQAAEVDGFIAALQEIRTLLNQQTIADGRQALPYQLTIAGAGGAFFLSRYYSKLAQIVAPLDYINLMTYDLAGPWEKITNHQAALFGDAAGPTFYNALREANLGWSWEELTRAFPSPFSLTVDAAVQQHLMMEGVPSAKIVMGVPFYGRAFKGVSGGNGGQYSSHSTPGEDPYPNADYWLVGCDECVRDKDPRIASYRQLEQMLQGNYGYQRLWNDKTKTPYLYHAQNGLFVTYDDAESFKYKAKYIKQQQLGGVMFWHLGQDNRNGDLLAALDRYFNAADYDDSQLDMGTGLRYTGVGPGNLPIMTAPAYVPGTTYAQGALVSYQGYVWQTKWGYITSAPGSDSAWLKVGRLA
MEASURED_QUANTITY: IC50
Report as: number unit

INSERT INTO results (compound, measured_quantity, test_value) VALUES
  ('CNC(=O)NC(=N)NCCC[C@@H]1NC(=O)[C@@H](C)NC(=O)C[C@@H](C(=O)O)NC(=O)C[C@@H](C(=O)O)NC(=O)[C@H](Cc2ccccc2)N(C)C1=O [ARGIFIN]', 'IC50', '100 nM');

Q: Fill blank: measured IC50 of the compound CC(=O)NC(=N)NCCC[C@@H]1NC(=O)[C@H](CCCC(=O)O)NC(=O)[C@H](Cc2c[nH]cn2)N2C(=O)[C@H](C[C@H]2O)NC(=O)[C@H]2CCCN2C1=O [ARGADIN] is ____.
Result: 3.4 nM
